test system: 786-0 renal; assay: NCI-60 one-dose screen, 48 h (100 = growth as untreated, 0 = no growth, -100 = all killed); details: 10 µM unless noted
Compounds without any hit were thinned out: in the full panel of roughly 83,000, 20% have a hit.
API: label(entry) gives T if the entry's growth is strictly smaller than 40%; on equality or larger values it gives F.

INSERT INTO assay_data (compound, test_target, class_name) VALUES
  ('O=C(CC(SCc1ccccc1)c1ccccc1)c1ccccc1 (stereo not drawn)', '786-0 renal', 'F'),
  ('Cn1c(=O)c2c(nc(Cl)n2CCl)n(C)c1=O', '786-0 renal', 'F'),
  ('COC(=O)[C@]12CC[C@@H](C)[C@H](C)[C@@H]1C1=CC[C@@H]3[C@@]4(C)C(C=O)=C[C@@](C)(COC(=O)c5ccco5)[C@@H]4C(=O)C[C@@]3(C)[C@]1(C)CC2', '786-0 renal', 'F'),
  ('N#C/C(=C/C=C/c1cccc(Cl)c1)S(=O)c1ccccc1 (stereo not drawn)', '786-0 renal', 'T'),
  ('COc1cc(C2CC(c3ccc(Nc4ccnc5cc(Cl)ccc45)cc3)=NN2C=O)cc(OC)c1OC (stereo not drawn)', '786-0 renal', 'F'),
  ('Cc1ccc2nc3ccccc3c(NCc3ccccc3)c2c1', '786-0 renal', 'T'),
  ('COc1cc(OC)cc(C2CC(=O)Nc3c2c(C)nn3-c2nc3ccccc3[nH]2)c1 (stereo not drawn)', '786-0 renal', 'T'),
  ('COc1cc(C(=O)/C=C/c2c(C(F)(F)F)nc3sccn23)cc(OC)c1OC', '786-0 renal', 'T');

###

test system: T-47D breast; experiment: NCI-60 one-dose screen, 48 h (100 = growth as untreated, 0 = no growth, -100 = all killed); details: 10 µM unless noted
This is part of a sample that, as a whole, favours compounds with a hit. Of some 83,000 tested, about 20% had one in any assay.
Label scheme for growth: lower than 80% is false, 80% and above is true.

INSERT INTO measurements (molecule, class_name) VALUES
  ('C=C(C)[C@@H]1CC[C@]2(C(=O)NC3CCCCC3)CC[C@]3(C)[C@H](CC[C@@H]4[C@@]5(C)CCC(=O)C(C)(C)[C@@H]5CC[C@]43C)[C@@H]12', 'true'),
  ('COc1cc(/C=N/n2c(CN3CCOCC3)nc3ccccc3c2=O)cc(OC)c1OC', 'true'),
  ('Cc1cc(NCc2cc(Nc3ccnc4cc(Cl)ccc34)ccc2F)nc(N2CCSCC2)n1', 'false'),
  ('S=C(c1ccc2c(c1)OCO2)N1CCN(c2ccccc2Cl)CC1', 'true'),
  ('Cc1cc(/C=C\c2ccc3ccccc3[n+]2C)c(O)c2ncccc12', 'false'),
  ('COc1cccc(-c2nn(-c3ccccc3)cc2-c2ccnc(NCCCNC(=O)c3ccc(F)cc3)c2)c1', 'false'),
  ('NCCCNc1nc2ccccc2c2c(=O)c3cccc(Cl)c3sc12', 'false'),
  ('N=c1sc(Cc2ccc(Cl)cc2)cn1CC(=O)c1ccc(F)cc1', 'false'),
  ('CC(=O)n1c(-c2ccc(Cl)cc2)nc2c(c1=O)C(c1ccc(Cl)cc1)c1sc3c(Cl)cccc3c1O2 (configuration not stated)', 'false'),
  ('COc1ccc(-c2[nH]c(=S)n(C(CC3(C)NCC(=O)N3n3c(-c4ccccc4)cc(C)nc3=S)c3ccc(OC)cc3)c(=O)c2Br)cc1 (configuration not stated)', 'false'),
  ('N#CCN1C(=O)C2C3=C(CCCC3)SC2N=C1CN1CCCC1 (configuration not stated)', 'true'),
  ('N#Cc1c(-c2cccc(Cl)c2)cc(-c2cccc(F)c2)[nH]c1=O', 'true');

Reference for the values: PubChem BioAssay (NCI)
